biological target: T1, human SIRPγ isoform 1 (human, UniProt Q9P1W8 29-147); assay: SPR, Langmuir fit
T1 construct: also called SIRPg; sirpg
T1 sequence (Q9P1W8 29-147 limits assumed): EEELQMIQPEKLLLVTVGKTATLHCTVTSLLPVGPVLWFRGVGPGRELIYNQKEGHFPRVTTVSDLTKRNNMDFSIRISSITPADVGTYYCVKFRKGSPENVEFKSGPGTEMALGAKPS
Threshold check on koff: strictly below 0.0001 s⁻¹ is Condition met; on or above 0.0001 s⁻¹ is Condition not met.

q: is_below(koff, 0.0001 s⁻¹) for S66 (scFv, V domains shown, also called clone 66; scFv-Fc form of AB66) VH: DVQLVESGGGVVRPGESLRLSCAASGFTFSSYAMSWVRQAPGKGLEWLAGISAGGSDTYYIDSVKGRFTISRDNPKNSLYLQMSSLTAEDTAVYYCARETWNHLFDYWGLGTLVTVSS VL: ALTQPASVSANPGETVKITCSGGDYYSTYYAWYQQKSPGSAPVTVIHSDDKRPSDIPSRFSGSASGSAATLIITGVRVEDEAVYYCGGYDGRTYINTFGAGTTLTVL ?
a: Condition not met

q: Decide: koff of S163 (scFv, V domains shown) VH: DVQLVESGGGLVRPGESLRLSCAASGFTFTNYAVTWVRQAPGEGLEWVSLISVTGTTYYADSVKGRFTISRDNSKSTLYLQMNGLRAEDTAVYYCAKVTWKNVFDYWGLGTLVTVSS VL: EIVLTQSPGTLSVSPGERATFSCRASQTVGSKLAWYQQKPGQAPRLLIYDANTRATGIPARFSGSGSGTEFTLTISSLQSEDFAVYYCQQHTDWPPYTFGGGTKVEIK strictly below 0.0001 s⁻¹?
a: Condition not met

q: Lab note: koff threshold 0.0001 s⁻¹. Does this binder come in strictly under it? S23 (scFv, V domains shown, also called clone 23) VH: DVQLVESGGGVVRPGESLRLSCAASGFTFSSHAMSWVRQAPGKGLEWLAGISAGGSDTYYIDSVKGRFTISRDNSKSSLYLRMNSLTAEDTAVYYCARETWNHLFDYWGLGTLVTVSS VL: ALTQPASVSANPGETVKITCSGGDYYSTYYAWYQQKSPGSAPVTVIHSDDERPSDIPSRFSGSASGSAATLIITGVRVEDEAVYFCGGYDGRTYINTFGAGTTLTVL
a: Condition not met

q: Below 0.0001 s⁻¹ on koff? Entry S3 (scFv, V domains shown, also called clone 3; scFv-Fc form of AB3) VH: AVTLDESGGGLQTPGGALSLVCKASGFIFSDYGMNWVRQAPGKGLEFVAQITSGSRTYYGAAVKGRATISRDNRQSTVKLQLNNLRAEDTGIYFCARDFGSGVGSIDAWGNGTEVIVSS VL: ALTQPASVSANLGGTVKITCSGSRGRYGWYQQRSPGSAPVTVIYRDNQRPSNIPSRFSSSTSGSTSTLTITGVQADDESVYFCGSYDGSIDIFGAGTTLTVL
a: Condition not met

q: Field: below-cutoff. Rule: recorded koff strictly less than 0.0001 s⁻¹. Subject: S26 (scFv, V domains shown, also called clone 26) VH: DVQLVESGGGVVRPGESLRLSCAASGFTFSTYAMSWVRQAPGKGLEWVSGISASGSGTYYGDSVKGRFTMSRDNSKNTLYLQMNSLTAEDTAVYYCARETWNHLFDYWGLGTLVTVSS VL: ALTQPASVSANLGGTVEITCSGGSSSYYGWYQQKSPGSAPVTVIYSDNQRPSDIPSRFSGSASDSTATLTITGVQVEDEAIYYCGGYDSSTYANTFGAGTTLTVL
a: Condition met

q: Strictly below 0.0001 s⁻¹: is that where koff of S25 (scFv, V domains shown, also called clone 25; scFv-Fc form of AB25) VH: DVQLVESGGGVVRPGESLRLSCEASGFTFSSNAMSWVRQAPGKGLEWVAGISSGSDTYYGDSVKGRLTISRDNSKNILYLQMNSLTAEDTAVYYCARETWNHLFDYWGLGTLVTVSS VL: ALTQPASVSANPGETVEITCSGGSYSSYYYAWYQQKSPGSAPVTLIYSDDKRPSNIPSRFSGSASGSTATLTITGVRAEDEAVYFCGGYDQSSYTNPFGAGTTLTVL sits?
a: Condition not met

Data provenance: patent US20210363269A1
